- target.or.system: T1, FX activation peptide 12-mer LDPTENPFDLLD (human)
- T1 peptide: LDPTENPFDLLD-biotin
- protocol.details: peptide ELISA
Ends that are not written are not given here.
readout.type: ELISA signal relative to background
Answer field: number only, no words.

Query string: Fill in: ELISA signal relative to background of Nb 701C06 (VHH, monovalent Nanobody; not shown: C-terminal FLAG3 and HIS6 tag) VHH: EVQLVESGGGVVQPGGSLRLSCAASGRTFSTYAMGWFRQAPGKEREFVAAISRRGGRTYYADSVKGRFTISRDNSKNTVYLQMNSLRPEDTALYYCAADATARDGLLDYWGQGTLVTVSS is ___
Result string: 0.94

Query string: Dear colleague, I am looking for the recorded ELISA signal relative to background of the following binder: Nb 501A02 (VHH, monovalent control Nanobody; also called control Nanobody; not shown: C-terminal FLAG3 and HIS6 tag) VHH: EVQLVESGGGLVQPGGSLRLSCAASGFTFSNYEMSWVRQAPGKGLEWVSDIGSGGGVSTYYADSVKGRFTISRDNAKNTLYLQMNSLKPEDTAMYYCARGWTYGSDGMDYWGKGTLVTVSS
Result string: 0.91
